Measurement type: melting point

compound=O=C(O)Cc1ccccc1OCc1ccccc1 value_measured="97 °C"
compound="C=CCc1ccccc1OCC(O)CNC(C)C (stereo unspecified)" value_measured="109 °C"
compound="CCCCC(CC)C(=O)O (stereo unspecified)" value_measured="-59 °C"
compound=COc1cc(C(=O)O)cc(OC)c1OC value_measured="170 °C"
compound=O=C(O)C(Cl)(Cl)Cl value_measured="57.5 °C"
compound="Cc1ccnc(NS(=O)(=O)c2ccc(N)cc2)n1 [Sulfamerazine]" value_measured="236 °C"

---

Property: melting point; scope: individual compounds
Measurement type: melting point

compound=C=C[C@H]1C[N@@]2CC[C@H]1C[C@@H]2[C@@H](O)c1ccnc2ccccc12 measurement_type="melting point" value_measured="258 °C"
compound=Cc1ncc([N+](=O)[O-])n1C measurement_type="melting point" value_measured="140 °C"
compound="CCC1(c2ccccc2)CCC(=O)NC1=O (configuration not stated) [glutethimide]" measurement_type="melting point" value_measured="87.5 °C"
compound="O=C(O)CCc1ccccc1 [3-phenylpropionic acid]" measurement_type="melting point" value_measured="48.5 °C"
compound=N#Cc1cccnc1 measurement_type="melting point" value_measured="50 °C"
compound=Clc1ccc(cc1)NC3=CC4=Nc2ccccc2N(C4=C/C3=NC(C)C)c5ccc(Cl)cc5 measurement_type="melting point" value_measured="211 °C"
compound=O=[N+]([O-])c1ccc(N2CCCCC2)cc1 measurement_type="melting point" value_measured="104 °C"
compound="CC(C)C(=O)O [2-methylpropanoic_acid]" measurement_type="melting point" value_measured="-46 °C"
compound=N#Cc1ccccc1Br measurement_type="melting point" value_measured="55 °C"
compound=O=[N+]([O-])c1ccc(Cl)cc1 measurement_type="melting point" value_measured="83.5 °C"
compound=C1=CCCC1 measurement_type="melting point" value_measured="-135 °C"
compound=N#CCc1cccc(CC#N)c1 measurement_type="melting point" value_measured="34 °C"
compound="COC(=O)c1ccc(C#N)cc1 [methyl_4-cyanobenzoate]" measurement_type="melting point" value_measured="62 °C"
compound=Cc1cc(Br)cn(C)c1=O measurement_type="melting point" value_measured="106 °C"
compound=Nc1cccc(Cl)c1Cl measurement_type="melting point" value_measured="24 °C"
compound=O=C(O)[C@H](O)[C@@H](O)C(=O)O measurement_type="melting point" value_measured="169 °C"
compound=COC(C)(C)OC measurement_type="melting point" value_measured="-47 °C"
compound=CCC(C)(CO)CO measurement_type="melting point" value_measured="44 °C"
compound=O=Cc1cc(Cl)cc(Cl)c1 measurement_type="melting point" value_measured="68 °C"
compound="CC(Oc1cccc(Cl)c1)C(=O)O (configuration not stated)" measurement_type="melting point" value_measured="115 °C"
compound="NC(=O)c1ccc(N)cc1 [4-aminobenzamide]" measurement_type="melting point" value_measured="183 °C"
compound=C#CCCCCCC measurement_type="melting point" value_measured="-79 °C"
compound=O=Cc1cccc(I)c1 measurement_type="melting point" value_measured="58 °C"
compound=[2H]OC(=O)C([2H])([2H])[2H] measurement_type="melting point" value_measured="15.5 °C"
compound="C=CCCCC [Hex-1-ene]" measurement_type="melting point" value_measured="-140 °C"
compound=CCCCCCCCCCCCS[C@H](C(=O)Nc1cc(C)c(O)c(C)c1C)c1ccccc1 measurement_type="melting point" value_measured="-144 °C"
compound="C[C@@H]1C[C@H]1C (relative stereo) [trans-1,2-dimethylcyclopropane]" measurement_type="melting point" value_measured="-150 °C"
compound=Cc1cc(=O)cc(C)o1 measurement_type="melting point" value_measured="134 °C"
compound="CCOC(=O)CCl [ethyl chloroacetate]" measurement_type="melting point" value_measured="-26 °C"
compound="COC1CC(C(=O)Cl)CC(OC)C1OC (configuration not stated) [3,4,5-trimethoxycyclohexanecarbonyl chloride]" measurement_type="melting point" value_measured="82 °C"
compound="CCCC(C)(COC(N)=O)COC(N)=O [2-[(Carbamoyloxy)methyl]-2-methylpentyl carbamate]" measurement_type="melting point" value_measured="105 °C"
compound=Brc1cccc(I)c1 measurement_type="melting point" value_measured="-9 °C"
compound=O=C1C(=O)c2ccccc2-c2ccccc21 measurement_type="melting point" value_measured="210 °C"
compound="O=C(O)c1ccccc1 [Benzoic Acid]" measurement_type="melting point" value_measured="122 °C"
compound=N=c1nc(O)c2ncn(COCCO)c2[nH]1 measurement_type="melting point" value_measured="255 °C"
compound=Clc1cc(Cl)cc(-c2nnn[nH]2)c1 measurement_type="melting point" value_measured="207 °C"
compound=ClC(Cl)C(Cl)Cl measurement_type="melting point" value_measured="-43 °C"
compound=Cc1cn([C@H]2C[C@H](O)[C@@H](CO)O2)c(=O)[nH]c1=O measurement_type="melting point" value_measured="188 °C"
compound=Cc1cccc(Cl)c1N measurement_type="melting point" value_measured="2 °C"
compound=CCCC(=O)c1cc2cc(Br)ccc2oc1=O measurement_type="melting point" value_measured="164 °C"
compound=COc1cc(NS(=O)(=O)c2ccc(N)cc2)nc(OC)n1 measurement_type="melting point" value_measured="204 °C"
compound="N#CCC(=O)NN [cyanoacetic acid hydrazide]" measurement_type="melting point" value_measured="108 °C"

---

Each entry falls into one class according to its melting point; the ranges are LOW: < 40 °C; MEDIUM: ≥ 40 °C and < 100 °C; HIGH: ≥ 100 °C

compound="CNC1=CC2=NC(OC)=CC2=CC1 [2-methoxy-N-methyl-1H-indol-6-amine]" assigned_class=HIGH
compound="OB(O)c1ccc(C2CCCCC2)cc1 [4-cyclohexylbenzeneboronic acid]" assigned_class=HIGH
compound=CN(C)c1ccc(/C=C(\C#N)c2nc(-c3cccc4ccccc34)cs2)cc1 assigned_class=HIGH
compound="CCS [ethanethiol]" assigned_class=LOW
compound="CCOC(=O)C(C#N)=Cc1ccccc1 [Ethyl 2-Cyano-3-Phenylacrylate]" assigned_class=MEDIUM
compound="Cc1nn(C)c(C)c1C=O [1,3,5-trimethyl-1h-pyrazole-4-carboxaldehyde]" assigned_class=MEDIUM
compound="CC(C)I [2-Iodopropane]" assigned_class=LOW
compound="Nc1ccccc1[N+](=O)[O-] [2-Nitroaniline]" assigned_class=MEDIUM
compound="O=C(O)C1(C(F)(F)F)CCCCC1 [1-(trifluoromethyl)cyclohexanecarboxylic acid]" assigned_class=MEDIUM
compound="COc1ccc(/C=C/C(=O)O)c(Cl)c1OC [2-chloro-3,4-dimethoxycinnamic acid]" assigned_class=HIGH
compound="Clc1ccc(C(Cl)(Cl)Cl)cc1 [4-chlorobenzotrichloride]" assigned_class=LOW
compound="CCCCCCCCCCCl [1-chlorodecane]" assigned_class=LOW
compound="O=C(O)c1cccc(Cl)c1 [3-chlorobenzoic acid]" assigned_class=HIGH
compound="CCc1ccc(O)cc1 [4-ethylphenol]" assigned_class=MEDIUM
compound="CC(=O)NS(=O)(=O)c1ccc(N)cc1 [Sulfacetamide]" assigned_class=HIGH
compound="O=C(O)CSCC(=O)NC1CCSC1=O (configuration not stated) [erdosteine]" assigned_class=HIGH
compound="Cc1ccc(C(=O)O)cc1Cl [3-chloro-4-methylbenzoic acid]" assigned_class=HIGH
compound="ClC(Cl)Cl [chloroform]" assigned_class=LOW
compound="OC/C=C\\CO [cis-2-butene-1,4-diol]" assigned_class=LOW
compound=C(=C\c1nn2c(COc3ccccc3)nnc2s1)/c1ccccc1 assigned_class=HIGH
compound="O=C1c2ccccc2C(=O)N1c1nc2ccccc2[nH]1 [2-(1H-Benzimidazol-2-yl)-1H-isoindole-1,3(2H)-dione]" assigned_class=HIGH
compound="Nc1ccc2ncccc2c1 [6-aminoquinoline]" assigned_class=HIGH
compound="Nc1ccccc1CO [2-aminobenzyl alcohol]" assigned_class=MEDIUM
compound="CCOC(C)=O [Ethyl acetate]" assigned_class=LOW
compound="O=C1OC(=O)c2ccccc21 [phthalic anhydride]" assigned_class=HIGH
compound="COc1cc(CC(=O)O)c([N+](=O)[O-])cc1OC [4,5-dimethoxy-2-nitrophenylacetic acid]" assigned_class=HIGH
compound="C/C=C/CCC [trans-2-hexene]" assigned_class=LOW
compound="COc1cccc(C#N)c1OC [2,3-dimethoxybenzonitrile]" assigned_class=MEDIUM
compound="O=C(/N=N/C(=O)OCc1ccccc1)OCc1ccccc1 [dibenzyl azodicarboxylate]" assigned_class=MEDIUM
compound="CCC[C@H]1CCC[C@@H]1C (relative stereo) [trans-1-methyl-2-propylcyclopentane]" assigned_class=LOW
compound="N#Cc1c(O)cccc1F [2-fluoro-6-hydroxybenzonitrile]" assigned_class=HIGH
compound="O=[N+]([O-])c1cc[n+]([O-])c2ccccc12 [4-Nitroquinoline 1-oxide]" assigned_class=HIGH
compound="CC(C)C [Isobutane]" assigned_class=LOW
compound="CC(=O)OCCC(C)C [isopentyl acetate]" assigned_class=LOW
compound="Cc1ccc(O)c(C(C)(C)C)c1 [2-tert-butyl-4-methylphenol]" assigned_class=MEDIUM
compound="BrC(Br)c1ccccc1C(Br)Br [alpha,alpha,alpha',alpha'-tetrabromo-o-xylene]" assigned_class=HIGH
compound="N#CCc1ccc(Cl)cc1 [4-chlorobenzyl_cyanide]" assigned_class=LOW
compound="CC1CCC(C(C)C)C(O)C1 (racemic) [dl-menthol]" assigned_class=LOW
compound="COc1cc(C(=O)c2ccc(-c3ccccc3)cc2)c([N+](=O)[O-])cc1OC [biphenyl-4-yl(4,5-dimethoxy-2-nitrophenyl)methanone]" assigned_class=HIGH
compound="CC(=O)c1ccc(O)cc1 [4-hydroxyacetophenone]" assigned_class=HIGH

Reference for the values: the Bradley open melting point set (2014)
